Reported self-cleavage values follow for various variants
B1: CPEB3 Ribozyme (parent)
chain: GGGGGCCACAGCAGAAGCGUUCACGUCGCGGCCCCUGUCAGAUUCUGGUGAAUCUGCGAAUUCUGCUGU

Variants of: B1
Assay: self-cleavage, relative activity (ratio to wild type); higher = more cleavage; co-transcriptional
result-type: self-cleavage

[
  {
    "variant-notation": "C34U U61G",
    "result-type": "self-cleavage",
    "recorded-result": 0.711
  },
  {
    "variant-notation": "G11U A42G",
    "result-type": "self-cleavage",
    "recorded-result": 0.476
  },
  {
    "variant-notation": "U44A U69C",
    "result-type": "self-cleavage",
    "recorded-result": 1.05
  },
  {
    "variant-notation": "C7U C22A",
    "result-type": "self-cleavage",
    "recorded-result": 0.103
  },
  {
    "variant-notation": "A40C U61G",
    "result-type": "self-cleavage",
    "recorded-result": 0.192
  },
  {
    "variant-notation": "G11U U46C",
    "result-type": "self-cleavage",
    "recorded-result": 0.79
  },
  {
    "variant-notation": "G48U G68C",
    "result-type": "self-cleavage",
    "recorded-result": 1.05
  },
  {
    "variant-notation": "U26A G47U",
    "result-type": "self-cleavage",
    "recorded-result": 0.932
  },
  {
    "variant-notation": "A8C U61G",
    "result-type": "self-cleavage",
    "recorded-result": 0.937
  },
  {
    "variant-notation": "C12A G50A",
    "result-type": "self-cleavage",
    "recorded-result": 0.809
  },
  {
    "variant-notation": "C12A G47A",
    "result-type": "self-cleavage",
    "recorded-result": 0.875
  },
  {
    "variant-notation": "G2A C6G",
    "result-type": "self-cleavage",
    "recorded-result": 0.0574
  },
  {
    "variant-notation": "A23C U46A",
    "result-type": "self-cleavage",
    "recorded-result": 0.923
  },
  {
    "variant-notation": "C45A A51G",
    "result-type": "self-cleavage",
    "recorded-result": 1.02
  }
]
